Assign inhibition to each entry below.
test_target: CDK8/Cyclin C (Homo sapiens) (UniProt P49336+P24863)
experiment: Inhibition of human CDK8/Cyc C expressed in Sf21 cells at 1 uM measured after 1 hr by fluorescence plate reader relative to control
Quick reminder: number only, in %, skip the unit.

# input Give the measured inhibition for "Cn1ccc2cc(NC(=O)/C=C/c3cnccc3-c3cnn(C4CC4)c3)ccc21"
# output 100

# input Give the measured inhibition for "Cc1cc(NC(=O)/C=C/c2cnccc2-c2cnn(C)c2)ccc1CN1CCOCC1"
# output 96

# input Give the measured inhibition for "Cn1cc(-c2ccncc2/C=C/C(=O)Nc2ccc3cnccc3c2)cn1"
# output 96

# input Give the measured inhibition for "COc1ccsc1-c1ccncc1/C=C/C(=O)Nc1ccc(CN2CCOCC2)cc1"
# output 97

# input Give the measured inhibition for "Cc1nn(C)cc1-c1ccncc1/C=C/C(=O)Nc1ccc(CCc2nnco2)cc1"
# output 100

* * *

Assign T/C to each entry below.
System: SW480
experiment: Antitumor activity against human SW480 cells xenografted in BALB/c nude mouse assessed as inhibition of tumor growth at 50 mg/kg, po administered once daily measured after 14 days relative to control
Format: functional
condition_summary: time 14 day
Quick reminder: number only, in %, skip the unit.

# input Send back SW480 T/C of "Cn1cc(-c2ccncc2/C=C/C(=O)Nc2ccc3c(c2)CN(CC(F)(F)F)CC3)cn1" only.
# output 43

# input Send back SW480 T/C of "Cn1cc(-c2c(F)cncc2/C=C/C(=O)Nc2ccc(CN3CC(F)(F)C3)cc2)cn1" only.
# output 36

# input Send back SW480 T/C of "O=C(/C=C/c1cnccc1-c1cnn(C2CC2)c1)Nc1ccc(CN2CCOCC2)cc1" only.
# output 37

# input Send back SW480 T/C of "O=C(/C=C/c1cnccc1-c1cnn(C2CC2)c1)Nc1ccc(CN2CC(F)(F)C2)cc1" only.
# output 51

# input Send back SW480 T/C of "O=C(/C=C/c1cncc(F)c1-c1cnn(C2CC2)c1)Nc1ccc2c(c1)CN(CC(F)(F)F)C2" only.
# output 29

# input Send back SW480 T/C of "Cn1cc(-c2ccncc2/C=C/C(=O)Nc2ccc3c(c2)CN(CC(F)(F)F)C3)cn1" only.
# output 31

# input Send back SW480 T/C of "O=C(/C=C/c1cncc(F)c1-c1cnn(C2CC2)c1)Nc1ccc(CN2CCOCC2)cc1F" only.
# output 36

# input Send back SW480 T/C of "O=C(/C=C/c1cnccc1-c1cnn(C2CC2)c1)Nc1ccc(CN2CCOCC2)cc1F" only.
# output 36

* * *

test_target: CDK8/Cyclin C (Homo sapiens) (UniProt P49336+P24863)
experiment: Inhibition of human CDK8/Cyc C expressed in Sf21 cells at 1 uM measured after 1 hr by fluorescence plate reader relative to control
Assign inhibition to each entry below.
Quick reminder: number only, in %, skip the unit.

# input Give the measured inhibition for "CC(=O)N(C)Cc1cc(NC(=O)/C=C/c2cnccc2-c2cnn(C)c2)ccc1C"
# output 95

# input Give the measured inhibition for "Cn1cc(-c2ccncc2/C=C/C(=O)Nc2ccc(CNCC(F)(F)C(F)(F)F)cc2)cn1"
# output 101

# input Give the measured inhibition for "O=C(/C=C/c1cnccc1-c1cccs1)Nc1ccc(CCc2nnco2)cc1"
# output 101

# input Give the measured inhibition for "Cn1cc(-c2ccncc2/C=C/C(=O)Nc2ccc(N3CCOCC3)c(Cl)c2)cn1"
# output 102

# input Give the measured inhibition for "C[C@@H]1CN(Cc2ccc(NC(=O)/C=C/c3cnccc3-c3cnn(C)c3)cc2)C[C@H](C)O1"
# output 101

# input Give the measured inhibition for "Cn1cc(-c2ccncc2/C=C/C(=O)Nc2ccc3c(ccn3C)c2)cn1"
# output 98

# input Give the measured inhibition for "O=C(/C=C/c1cnccc1-c1ccns1)Nc1ccc(CN2CCOCC2)cc1"
# output 101

# input Give the measured inhibition for "Cn1cc(-c2ccncc2/C=C/C(=O)Nc2ccc(CC(C)(C)O)cc2)cn1"
# output 99

# input Give the measured inhibition for "Cn1cc(-c2ccncc2/C=C/C(=O)Nc2ccc3c(c2)OCO3)cn1"
# output 96

* * *

test_target: Cyclin-C/Cyclin-dependent kinase 19 (Homo sapiens) (UniProt Q9BWU1+P24863)
experiment: Inhibition of humanGST-tagged CDK19/Cyc C expressed in Sf21 cells at 1 uM measured after 1 hr by fluorescence plate reader relative to control
Assign inhibition to each entry below.
Quick reminder: number only, in %, skip the unit.

# input Give the measured inhibition for "Cn1cc(-c2ccncc2/C=C/C(=O)Nc2ccc(Oc3ccncc3)cc2)cn1"
# output 96

# input Give the measured inhibition for "Cn1cc(-c2ccncc2/C=C/C(=O)Nc2ccc(CC(C)(C)O)cc2)cn1"
# output 101

# input Give the measured inhibition for "Cn1cc(-c2ccncc2/C=C/C(=O)Nc2ccc(CC#N)cc2)cn1"
# output 95

# input Give the measured inhibition for "Cn1cnc2ccc(-c3c(F)cncc3/C=C/C(=O)Nc3ccc4c(c3)CN(CC(F)(F)F)C4)cc21"
# output 96

# input Give the measured inhibition for "O=C(/C=C/c1cnccc1-c1cnn(CC2(F)CC2)c1)Nc1ccc(CN2CCOCC2)cc1"
# output 101

# input Give the measured inhibition for Cn1cc(-c2ccncc2/C=C/C(=O)Nc2ccc(CN3CCN4CCCC4C3)cc2)cn1 (stereo not given)
# output 74

# input Give the measured inhibition for "Cn1cc(-c2ccncc2/C=C/C(=O)Nc2ccc(CCN3CCOCC3)cc2)cn1"
# output 101

# input Give the measured inhibition for "Cn1cc(-c2ccncc2/C=C/C(=O)Nc2ccc3c(c2)OCC3)cn1"
# output 94

# input Give the measured inhibition for "O=C(/C=C/c1cncc(F)c1-c1cnn(C2CC2)c1)Nc1ccc(CN2CC3CC(C2)O3)cc1"
# output 101

# input Give the measured inhibition for "Cn1cc(-c2ccncc2/C=C/C(=O)Nc2ccc3c(c2)CN(CC(F)(F)F)C3)cn1"
# output 102

# input Give the measured inhibition for "Cn1cc(-c2ccncc2/C=C/C(=O)Nc2ccc(CN3CCOCC3)cc2F)cn1"
# output 97

# input Give the measured inhibition for "Cn1cc(-c2ccncc2/C=C/C(=O)Nc2ccc(CN3CCOCC3)c(F)c2)cn1"
# output 97

# input Give the measured inhibition for "CC(C)(F)Cc1ccc(NC(=O)/C=C/c2cnccc2-c2cnn(C3CC3)c2)cc1"
# output 95

# input Give the measured inhibition for "O=C(/C=C/c1cnccc1-c1cnn(C2CC2)c1)Nc1ccc(CN2CCOCC2)cc1F"
# output 99

# input Give the measured inhibition for "Cn1cc(-c2ccncc2/C=C/C(=O)Nc2ccc(CN3CC(F)(F)OC(F)(F)C3)cc2)cn1"
# output 98

# input Give the measured inhibition for "O=C(/C=C/c1cncc(F)c1-c1cnn(C2CC2)c1)Nc1ccc2c(c1)CN(CC(F)(F)F)C2"
# output 100

# input Give the measured inhibition for "O=C(/C=C/c1cnccc1-c1cnn(C(F)F)c1)Nc1ccc(CN2CCOCC2)cc1"
# output 100

# input Give the measured inhibition for "O=C(/C=C/c1cnccc1-c1ccc2nccn2c1)Nc1ccc(CN2CCOCC2)cc1"
# output 100

# input Give the measured inhibition for "COCc1ccc(NC(=O)/C=C/c2cnccc2-c2cnn(C)c2)cc1"
# output 100

# input Give the measured inhibition for "Cn1cc(-c2c(F)cncc2/C=C/C(=O)Nc2ccc(CN3CCOCC3)cc2F)cn1"
# output 99
